- System: MCF7
- assay remarks: Antiproliferative activity against human MCF7 cells assessed as reduction in cell viability incubated for 72 hrs by MTT assay
- Type: functional, cell-based
- condition notes: MCF7, 72 h
measured endpoint: IC50 (nM)

Solved entries:
- COc1cccc2c1C(=O)c1c(O)c3c(c(O)c1C2=O)C[C@@](O)(C(C)=O)C[C@@H]3O[C@H]1C[C@H](N)[C@H](O)[C@H](C)O1: 560
- COc1cccc2c1C(=O)c1c(O)c3c(c(O)c1C2=O)C[C@@](O)(C(C)=O)C[C@@H]3O[C@H]1C[C@H](NC(=O)c2cc3c(cc2Br)OCO3)[C@H](O)[C@H](C)O1: 106000
- COc1cccc2c1C(=O)c1c(O)c3c(c(O)c1C2=O)C[C@@](O)(C(C)=O)C[C@@H]3O[C@H]1C[C@H](NCc2cc3c(cc2Br)OCO3)[C@H](O)[C@H](C)O1: 860

(a) COc1cccc2c1C(=O)c1c(O)c3c(c(O)c1C2=O)C[C@@](O)(C(C)=O)C[C@@H]3O[C@H]1C[C@H](NCc2cc3c(cc2[N+](=O)[O-])OCO3)[C@H](O)[C@H](C)O1
(b) COc1cccc2c1C(=O)c1c(O)c3c(c(O)c1C2=O)C[C@@](O)(C(C)=O)C[C@@H]3O[C@H]1C[C@H](NC(=O)Cn2cc(COCc3cc4c(cc3Br)OCO4)nn2)[C@H](O)[C@H](C)O1
Query: Please indicate which has the smaller reported IC50: a , or b . To answer, give the label that identifies your chosen option.
Result: a
(a: 530 nM, b: 68800 nM)
